Test system: PC-3 prostate
Assay: NCI tumour cell line growth inhibition, 48 h
This listing pairs compounds with measured TGI.

Worked examples, 3 compounds total:
CCOC(=O)c1ccc(C(=O)/C(C#N)=C2\CCCN2)n1C : > 100 µM
COc1cc2nccc(Oc3ccc(NC(=O)C4(C(=O)Nc5ccc(F)cc5)CC4)cc3)c2cc1OC(=O)c1ccc(N)cc1 : > 100 µM
CCOP(=O)(OCC)C(C)(C)OC(=O)NC(F)(F)F : > 100 µM

// fetch TGI for Oc1ccc2c(c1)OCC1(O)Cc3cc(O)c(O)cc3C21 (configuration not stated) ; system: PC-3 prostate
39.4 µM

// fetch TGI for COC(=O)Nc1nc2ccc(NS(=O)(=O)c3ccc(Cl)cc3)cc2[nH]1 ; system: PC-3 prostate
54.3 µM

// fetch TGI for Cc1ccc(C(=O)N/N=C(\N=Nc2cccc(C)c2)c2ccc(N(CCC#N)CCC#N)cc2C)cc1 ; system: PC-3 prostate
> 100 µM

// fetch TGI for C=C1CC[C@]2(C)[C@H](CC[C@@]34C[C@@H](CC[C@H]32)[C@@H](C(=O)O)C4)C1(C)C ; system: PC-3 prostate
> 12.5 µM

---

This listing pairs compounds with measured TGI.
System: HT29 colon
Test: NCI tumour cell line growth inhibition, 48 h

Worked examples, 2 compounds total:
O=C1NC(=NCc2c(Cl)cccc2Cl)S/C1=C\c1ccc2ncccc2c1 : > 25 µM
Cc1oc2c(cc(O)c3ccccc32)c2cccc1-2 : > 100 µM

Determine its reported TGI: Cc1cc(O)c(C=NC(=S)c2ccncc2)c(=O)o1
> 100 µM

---

Tested on: HCT-116 colon
Test: NCI tumour cell line growth inhibition, 48 h
This listing pairs molecules with measured TGI.

Worked examples, 2 molecules total:
CN1C(=O)N(C)C2(O)c3ccccc3C(=O)C12O (stereo not drawn) : > 100 µM
CC(C)(C)OC(=O)N(CCCN)CCCCN : > 100 µM

Determine its reported TGI: COc1ccc(N)c(C(=O)CCNC(C)=O)c1
> 100 µM

---

Tested on: EKVX NSCLC
Assay: NCI tumour cell line growth inhibition, 48 h
reportedMetric: TGI

Worked examples, 5 compounds total:
CC(=O)OC1COC(n2nc(N)nc2C)C(OC(C)=O)C1OC(C)=O (stereo not drawn) : > 100 µM
CCC(C)C1NC(=O)C(NC(=O)C(CC(C)C)N(C)C(=O)[C@@H]2C=CCN2C(=O)[C@H](C)O)C(C)OC(=O)[C@H](Cc2ccc(OC)cc2)N(C)C(=O)[C@@H]2CCCN2C(=O)[C@H](CC(C)C)NC(=O)C(C)C(=O)[C@H](C(C)C)OC(=O)CC1O (stereo partly drawn) : 0.0345 µM
N#CC(NCCc1ccccc1)c1ccc(C(C#N)NCCc2ccccc2)cc1 (stereo not drawn) : > 100 µM
CC1(C)OCC[C@@H]1[Si](C)(C)C : > 100 µM
C/C(=N\Nc1nc2ccccc2o1)c1ccc2ccccc2n1 : 9.23 µM

Determine its reported TGI: CN(C)CCNS(=O)(=O)N(C)C
> 100 µM

Determine its reported TGI: O=c1[nH]nc(-c2nn(-c3ccc(Cl)cc3)cc2O)o1
0.904 µM

Determine its reported TGI: CCOP(=O)(OCC)C(C)(C)OC(=O)NC(F)(F)F
> 100 µM

Determine its reported TGI: O=C(CCC1CCCCC1)NCc1ccc(C(=O)O)cc1
> 100 µM

Determine its reported TGI: C=C1CC[C@]2(C)[C@H](CC[C@@]34C[C@@H](CC[C@H]32)[C@@H](C(=O)O)C4)C1(C)C
> 12.5 µM

Determine its reported TGI: COc1ccc(N)c(C(=O)CCNC(C)=O)c1
> 100 µM

Determine its reported TGI: c1ccc2c(c1)N[C@@H]1c3[nH]c4ccccc4c3CC[C@H]21
37.2 µM

Determine its reported TGI: Cc1ccc(S(=O)(=O)C2=C([Si](C)(C)C)C3CC2[C@@H]2C4C=CC(CC4)[C@H]32)cc1 (stereo partly drawn)
> 100 µM
